This listing pairs molecules with measured activity score.
# assay text: M. tuberculosis BioA enzyme inhibitors, biochemical, single concentration, dry powder (AID 743184)
# assay setup: at 9.99 µM; stronger effect = higher value
Unit % implied. Number only.

Observe how each entry below is paired with its result.
INSERT INTO assay_data (smiles_data, obs_value) VALUES
  ('O=C(COc1ccc2ccc(=O)oc2c1)N1CCN(c2ccc(F)cc2)CC1', 3.38),
  ('O=C(O)CC/C(=C\c1ccccc1[N+](=O)[O-])c1nc2ccccc2s1', -1.5);

Continue with the molecule presented below.
Task: Supply activity score value. Item: `CCc1ccc(C(=O)N2CCN(Cc3ccc4c(c3)OCO4)CC2)cc1`
Output: 0.311

* * *

This listing pairs compounds with measured activity score.
# assay text: M. tuberculosis BioA enzyme inhibitors, biochemical, single concentration, dry powder (AID 743184)
# assay setup: at 9.99 µM; stronger effect = higher value
Unit % implied. Number only.

Observe how each entry below is paired with its result.
INSERT INTO assay_data (smiles_data, unit_name, obs_value) VALUES
  ('Cc1ccc(NC(=O)N2CCN(c3ccccc3)CC2)cc1', '%', 17.2),
  ('CC(C)(C)c1ccc(C(=O)N2CCN(c3ccc4c(c3)OCO4)CC2)cc1', '%', -3.13),
  ('O=C(Nc1ccc2snnc2c1)N1CCN(c2ccccc2)CC1', '%', -7.17);

Continue with the compound presented below.
Task: Supply activity score value. Item: `Cc1ccc(/C=C(\CCC(=O)O)c2nc3ccccc3s2)cc1[N+](=O)[O-]`
Output: -15.2

Values compiled from PubChem BioAssay AID743184.
